These data points were gathered from patent US20160122307A1.

TEST_TARGET: UniProtKB P41145
ASSAY_SUMMARY: κ opioid receptor functional assay, [35S]GTPγS binding (assay C)
Type: biochemical

MOLECULE: O=C(Cc1ccc(Cl)cc1)N1CCN(S(=O)(=O)Cc2ccon2)[C@H]2CCC[C@H](N3CC[C@H](O)C3)[C@H]21 [Example 146]
% activation functional assay at 1 μM, %: 103

MOLECULE: O=C(Cc1ccc(Cl)c(F)c1)N1CCN(S(=O)(=O)Cc2ccon2)[C@H]2CCC[C@H](N3CC[C@H](O)C3)[C@H]21 [Example 147]
% activation functional assay at 1 μM, %: 105

MOLECULE: CCOC(=O)COC(=O)N1CCN(C(=O)Cc2ccc(Cl)c(Cl)c2)C2C(N3CCCC3)CCCC21.Cl (stereo not shown) [Example 111]
% activation functional assay at 1 μM, %: 105

MOLECULE: COC(=O)N1CCN(C(=O)Cc2ccc(F)c(Cl)c2)C2C(N3CCC(O)C3)CCCC21.Cl (stereo not shown) [Example 110]
% activation functional assay at 1 μM, %: 92

MOLECULE: Cl.O=C(Cc1ccc(Cl)c(Cl)c1)N1CCN(S(=O)(=O)N2CCCC2)C2CCCC(N3CCC(O)C3)C21 (stereo not shown) [Example 127]
% activation functional assay at 1 μM, %: 100

MOLECULE: CS(=O)(=O)N1CCN(C(=O)Cc2ccc(Cl)c(Cl)c2)C2C(N3CCC(O)C3)CCCC21.Cl (stereo not shown) [Example 121]
% activation functional assay at 1 μM, %: 106

MOLECULE: Cl.O=C(Cc1ccc(Cl)c(Cl)c1)N1CCN(S(=O)(=O)NCCO)C2CCCC(N3CCC(O)C3)C21 (stereo not shown) [Example 130]
% activation functional assay at 1 μM, %: 102

MOLECULE: CC(C)NC(=O)N1CCN(C(=O)Cc2ccc(Cl)c(Cl)c2)C2C(N3CCC(O)C3)CCCC21.Cl (stereo not shown) [Example 120]
% activation functional assay at 1 μM, %: 100

MOLECULE: O=C(Cc1ccc(Cl)c(Cl)c1)N1CCN(S(=O)(=O)N2CCOCC2)[C@H]2CCC[C@H](N3CC[C@H](O)C3)[C@H]21 [Example 137]
% activation functional assay at 1 μM, %: 101

MOLECULE: CCCNS(=O)(=O)N1CCN(C(=O)Cc2ccc(Cl)c(Cl)c2)C2C(N3CCC(O)C3)CCCC21.Cl (stereo not shown) [Example 133]
% activation functional assay at 1 μM, %: 105

* * *

TEST_TARGET: Human opiate κ receptors (Homo sapiens)
Format: binding
Set-up: expressed in transfected cells; host or cells: HEK-293 cell membranes
RECORDED_METRIC: % binding at 100 nM (%)

MOLECULE: Cl.O=C(Cc1ccc(Cl)c(Cl)c1)N1CCN(S(=O)(=O)NCCO)C2CCCC(N3CCC(O)C3)C21 (stereo not shown)
TEST_TARGET: Human opiate κ receptors (Homo sapiens)
RECORDED_METRIC: % binding at 100 nM
MEASURED: 70
//
MOLECULE: O=C(Cc1ccc(Cl)c(Cl)c1)N1CCN(S(=O)(=O)N2CCOCC2)[C@H]2CCC[C@H](N3CC[C@H](O)C3)[C@H]21
TEST_TARGET: Human opiate κ receptors (Homo sapiens)
RECORDED_METRIC: % binding at 100 nM
MEASURED: 71
//
MOLECULE: O=C(Cc1ccc(Cl)c(Cl)c1)N1CCN(S(=O)(=O)NC2CCCC2)[C@H]2CCC[C@H](N3CC[C@H](O)C3)[C@H]21
TEST_TARGET: Human opiate κ receptors (Homo sapiens)
RECORDED_METRIC: % binding at 100 nM
MEASURED: 76
//
MOLECULE: CC(C)OC(=O)C(=O)N1CCN(C(=O)Cc2ccc(Cl)c(Cl)c2)[C@@H]2[C@@H](N3CCCC3)CCC[C@@H]21.Cl
TEST_TARGET: Human opiate κ receptors (Homo sapiens)
RECORDED_METRIC: % binding at 100 nM
MEASURED: 68
//
MOLECULE: O=C(Cc1ccc(F)c(F)c1)N1CCN(S(=O)(=O)Cc2ccon2)[C@H]2CCC[C@H](N3CC[C@H](O)C3)[C@H]21
TEST_TARGET: Human opiate κ receptors (Homo sapiens)
RECORDED_METRIC: % binding at 100 nM
MEASURED: 81
//
MOLECULE: O=C(Cc1ccc(Cl)cc1)N1CCN(S(=O)(=O)Cc2ccon2)[C@H]2CCC[C@H](N3CC[C@H](O)C3)[C@H]21
TEST_TARGET: Human opiate κ receptors (Homo sapiens)
RECORDED_METRIC: % binding at 100 nM
MEASURED: 76
//
MOLECULE: Cl.NCC(=O)N1CCN(C(=O)Cc2ccc(Cl)c(Cl)c2)[C@@H]2[C@@H](N3CCCC3)CCC[C@@H]21 (racemic)
TEST_TARGET: Human opiate κ receptors (Homo sapiens)
RECORDED_METRIC: % binding at 100 nM
MEASURED: 41

* * *

TEST_TARGET: Human opiate κ receptors (Homo sapiens, UniProt P41145)
Sequence (P41145 whole entry): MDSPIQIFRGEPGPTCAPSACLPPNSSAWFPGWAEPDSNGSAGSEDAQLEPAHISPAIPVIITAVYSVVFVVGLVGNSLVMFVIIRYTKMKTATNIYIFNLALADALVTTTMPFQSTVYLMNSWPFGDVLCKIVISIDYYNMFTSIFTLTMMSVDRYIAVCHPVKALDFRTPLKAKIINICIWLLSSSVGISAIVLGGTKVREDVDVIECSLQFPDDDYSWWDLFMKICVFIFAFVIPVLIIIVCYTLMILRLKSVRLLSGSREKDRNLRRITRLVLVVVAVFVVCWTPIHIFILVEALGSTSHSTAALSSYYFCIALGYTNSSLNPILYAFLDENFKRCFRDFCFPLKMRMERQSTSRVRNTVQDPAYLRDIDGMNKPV
ASSAY_SUMMARY: κ opioid receptor functional assay, [35S]GTPγS binding (assay C)
Assay type: biochemical
RUN_PARAMETERS: 0.5 h, read-out: % activation functional assay at 1 μM
Readings of activation at 1 µM for the listed compounds

COMPOUND: COC(=O)c1cccc(C(=O)N2CCN(C(=O)Cc3ccc(Cl)c(Cl)c3)C3C(N4CCCC4)CCCC32)c1 (racemic)
UNIT_TEXT: %
activation at 1 µM: 86
--
COMPOUND: CC(C)(C)OC(=O)N1CCN(C(=O)Cc2ccc(Cl)c(Cl)c2)[C@@H]2[C@@H](N3CCCC3)CCC[C@@H]21 (racemic)
UNIT_TEXT: %
activation at 1 µM: 105
--
COMPOUND: COC(=O)COC(=O)N1CCN(C(=O)Cc2ccc(Cl)c(Cl)c2)C2C(N3CCCC3)CCCC21 (racemic)
UNIT_TEXT: %
activation at 1 µM: 106
--
COMPOUND: COC(=O)c1ccc(C(=O)N2CCN(C(=O)Cc3ccc(Cl)c(Cl)c3)C3C(N4CCCC4)CCCC32)cc1 (racemic)
UNIT_TEXT: %
activation at 1 µM: 102

* * *

TEST_TARGET: Human opiate κ receptors (Homo sapiens)
ASSAY_SUMMARY: κ opioid receptor functional assay, [35S]GTPγS binding (assay C)
Assay type: biochemical
RUN_PARAMETERS: GTPγS EC50 (nM)

MOLECULE: CN(C)S(=O)(=O)N1CCN(C(=O)Cc2ccc(Cl)c(Cl)c2)C2C(N3CCCC3)CCCC21 (racemic)
EC50: < 10 nM
--
MOLECULE: O=C(CO)N1CCN(C(=O)Cc2ccc(Cl)c(Cl)c2)C2C(N3CCCC3)CCCC21 (racemic)
EC50: 10 to 100 nM
--
MOLECULE: O=C(C1CCCN1)N1CCN(C(=O)Cc2ccc(Cl)c(Cl)c2)C2C(N3CCCC3)CCCC21 (racemic)
EC50: 100 to 1000 nM
--
MOLECULE: CCNC(=O)N1CCN(C(=O)Cc2ccc(Cl)c(Cl)c2)C2C(N3CCCC3)CCCC21 (racemic)
EC50: < 10 nM
--
MOLECULE: COC(=O)N1CCN(C(=O)Cc2ccc(Cl)s2)C2C(N3CCCC3)CCCC21 (racemic)
EC50: 10 to 100 nM
--
MOLECULE: COC(=O)N1CCN(C(=O)Cc2ccc3ccccc3c2)C2C(N3CCCC3)CCCC21 (racemic)
EC50: 10 to 100 nM
--
MOLECULE: COC(=O)N1CCN(C(=O)Cc2ccc(Cl)c(Cl)c2)C2C(N3CC=CCC3)CCCC21 (racemic)
EC50: 10 to 100 nM
--
MOLECULE: COC(=O)N1CCN(C(=O)Cc2ccc(F)c(F)c2)C2C(N3CCCC3)CCCC21 (racemic)
EC50: < 10 nM
--
MOLECULE: COC(=O)CNC(=O)N1CCN(C(=O)Cc2ccc(Cl)c(Cl)c2)C2C(N3CCCC3)CCCC21 (racemic)
EC50: < 10 nM
--
MOLECULE: COC(=O)N1CCN(C(=O)Cc2ccc(Cl)c(Cl)c2)C2C1CCCC2N(C)C(C)C (racemic)
EC50: < 10 nM
--
MOLECULE: COC(=O)N1CCN(C(=O)Cc2ccc(F)c(Cl)c2)C2C(N3CCCC3)CCCC21 (racemic)
EC50: < 10 nM
--
MOLECULE: COC(=O)N1CCN(C(=O)Cc2ccc(Cl)c(Cl)c2)C2C(N3CCC(O)C3)CCCC21 (stereo not shown) [Example 53]
EC50: < 10 nM
--
MOLECULE: COC(=O)COC(=O)N1CCN(C(=O)Cc2ccc(Cl)c(Cl)c2)C2C(N3CCCC3)CCCC21 (racemic)
EC50: < 10 nM
--
MOLECULE: COC(=O)CC(=O)N1CCN(C(=O)Cc2ccc(Cl)c(Cl)c2)C2C(N3CCCC3)CCCC21 (racemic)
EC50: < 10 nM
--
MOLECULE: CN(C)C(=O)N1CCN(C(=O)Cc2ccc(Cl)c(Cl)c2)C2C(N3CCCC3)CCCC21 (racemic)
EC50: 10 to 100 nM
--
MOLECULE: COC(=O)N1CCN(C(=O)Cc2cccc(Cl)c2)C2C(N3CCCC3)CCCC21 (racemic)
EC50: < 10 nM
